Tested on: EKVX NSCLC
ASSAY PROCEDURE: NCI-60 one-dose screen, 48 h
STATED CONDITIONS: 10 µM unless noted
The panel holds about 83,000 compounds, 20% with a hit somewhere; the sample as a whole holds those more often. Active and inactive are the calls of the source. The calls were made as follows: active = growth percent below 10; inactive = the rest.
Possible outcomes: active, inactive

COMPOUND | TESTED TARGET | ASSIGNED LABEL
O=C(/C=C/c1ccc(F)cc1)c1ccc(O)cc1 | EKVX NSCLC | inactive
NS(=O)(=O)c1ccc(-n2cc(CN3CCNCC3)nn2)cc1 | EKVX NSCLC | inactive
O=C1[C@H]2Cc3c([nH]c4ccccc34)[C@@H](c3ccc(Cl)cc3)N2C(=O)CN1C1CCN(Cc2ccccc2)CC1 | EKVX NSCLC | inactive
C=C(C)[C@@H]1CC[C@]2(COC)CC[C@]3(C)[C@H](CC[C@@H]4[C@@]5(C)CCCNC(C)(C)[C@@H]5CC[C@]43C)[C@@H]12 | EKVX NSCLC | inactive
COc1ccc([C@H]2[C@H](O)C(=O)N2c2cc(OC)c(OC)c(OC)c2)cc1F | EKVX NSCLC | inactive
COc1c(N2CC3CCCNC3C2)c(F)cc2c(=O)c(C(=O)N/N=C/c3ccc4c(c3)OCO4)cn(C3CC3)c12 (centres undefined) | EKVX NSCLC | inactive
CCCCCc1ccc(S(=O)(=O)Nc2cccc(-c3csc(NC(=O)CNCCN(C)C)n3)c2)cc1 | EKVX NSCLC | inactive
C=CCn1c(SCC(=O)Nc2ccc(C(=O)/C=C/c3ccc(Br)cc3)cc2)nnc1-c1c[nH]c2ccccc12 | EKVX NSCLC | inactive
N#C/C(=C\c1ccc(-c2ccc(Cl)cc2Cl)o1)c1ccc(F)cc1 | EKVX NSCLC | inactive
CC(=O)c1cc(C(=O)N2c3ccccc3Sc3ccccc32)n2ccc3ccccc3c12 | EKVX NSCLC | inactive
COc1ccc2c(c1)c(CC(=O)[Se]CCC#N)c(C)n2C(=O)c1ccc(Cl)cc1 | EKVX NSCLC | active
C#CCC#CCN1CCC[C@H]1C(=O)NCC(=O)OC | EKVX NSCLC | inactive
COc1cc2oc(-c3cccc(C(=O)N[C@@H](CC(C)C)C(=O)OC(C)(C)C)c3)cc(=O)c2c(OC)c1OC | EKVX NSCLC | inactive
CC1(C)CC[C@]2(C(=O)N3CCOCC3)CC[C@]3(C)C(=CC[C@@H]4[C@@]5(C)C/C(=C/c6ccco6)C(=O)C(C)(C)[C@@H]5CC[C@]43C)[C@@H]2C1 | EKVX NSCLC | inactive
O=C(Nc1nonc1-c1ccccc1)c1ccc(C(F)(F)F)cc1 | EKVX NSCLC | inactive
COc1cc(Cn2cc3c(c2)-c2onc(CN4CCOCC4)c2CC3)cc(OC)c1OC | EKVX NSCLC | inactive
CCCn1cnc2c(c1=N)C(c1ccc(Cl)cc1)c1sc3c(CC)cccc3c1O2 (centres undefined) | EKVX NSCLC | inactive
NC(N)=Nc1ccc(Oc2ccc(Nc3ccc(Cl)c(C(F)(F)F)c3)cc2)cc1 | EKVX NSCLC | inactive
Nc1cc(-c2c[nH]c3ccc(Br)cc23)nc2cc(-c3c[nH]c4ccc(Br)cc34)nn12 | EKVX NSCLC | inactive
COc1ccc(N2C(=O)c3cc(Cl)ccc3NC2SCc2ccccc2)cc1 (centres undefined) | EKVX NSCLC | inactive
O=C(c1ccc(Cl)cc1)C1[C@H](c2ccc(Cl)cc2)[C@@H](c2ccccc2)NC12C(=O)Nc1ccccc12 (some centres undefined) | EKVX NSCLC | inactive
Cn1ccnc1C(=O)/C=C/c1ccc(NC(=O)c2c(F)c(F)c(F)c(F)c2F)cc1 | EKVX NSCLC | inactive
NC(N)=Nc1ccc(Oc2cccc(Nc3ccc(Cl)c(C(F)(F)F)c3)c2)cn1 | EKVX NSCLC | active
Cc1c(F)cc(C(N)=O)cc1NCC(=O)Nc1ccc([N+](=O)[O-])cc1 | EKVX NSCLC | inactive
